The following binders are shown together with reported EC50 values.
biological target: mTEM8; assay: ELISA
Quick reminder: number only, in nM, skip the unit.

See these solved cases before continuing.
>  <binder>
L2 (Fab, V domains shown) VH: QVQLKESGPALVKPTQTLTLTCTFSGFSLSTSGGGVSWIRQPPGKALEWLAHIYSNDDKSYSTSLKTRLTISKDTSKNQVVLTMTNMDPVDTATYYCARGGYFLDYWGQGTLVTVSS VL: DIELTQPPSVSVAPGQTARISCSGDNIGGIYVHWYQQKPGQAPVLVIYADSKRPSGIPERFSGSNSGNTATLTISGTQAEDEADYYCQSYDITSLVFGGGTKLTVL

>  <EC50 / nM>
0.28

$$$$
>  <binder>
L3 (Fab, V domains shown) VH: QVQLQQSGPGLVKPSQTLSLTCAISGDSVSTNGAAWGWIRQSPGRGLEWLGRIYYRSKWYNDYAVSVKSRITINPDTSKNQFSLQLNSVTPEDTAVYYCARMPGGFLFDLWGQGTLVTVSS VL: DIELTQPPSVSVAPGQTARISCSGDNIRSYYAHWYQQKPGQAPVLVIYGDSKRPSGIPERFSGSNSGNTATLTISGTQAEDEADYYCSSYASHDYVFGGGTKLTVLG

>  <EC50 / nM>
0.36

$$$$

Continue with the next binder.
Exercise: Query (binder): L1 (Fab, V domains shown) VH: QVQLVESGGGLVQPGGSLRLSCAASGFTFNSYAMSWVRQAPGKGLEWVSLISSGSSTYYADSVKGRFTISRDNSKNTLYLQMNSLRAEDTAVYYCARAGFKFDNWGQGTLVTVSS VL: DIELTQPPSVSVAPGQTARISCSGDSIPNYSVSWYQQKPGQAPVLVIYADSNRPSGIPERFSGSNSGNTATLTISGTQAEDEADYYCQSYDNTSPDLVFGGGTKLTVLG ; field requested: EC50
Solution: 0.21
